Reported TGI by item:
Test system: HOP-62 NSCLC
test name: NCI tumour cell line growth inhibition, 48 h
property name: TGI

> print(dat)
                                    molecule  measured.target       val
 1  COc1ccccc1Nc1nc(NNC(=O)Cc2ccccc2)nc(NNC(=O)c2ccncc2)n1     HOP-62 NSCLC   > 10 µM
 2  C1=CC=C2NCCOCCNC3=CC=CC=CC3=NCCOCCN=C2C=C1     HOP-62 NSCLC  > 100 µM
 3            Cn1nc(S(N)(=O)=O)s/c1=N/C(N)=S     HOP-62 NSCLC  > 100 µM
 4                     O=C1CCCN1CC#CCN1CCCC1     HOP-62 NSCLC  > 100 µM
 5  CN(C)CCNc1ncnc2nc(-c3ccc4ccccc4c3)[nH]c12     HOP-62 NSCLC  > 100 µM
 6  C[C@]12CC[C@H](O)CC1=CC[C@@H]1[C@@H]2CC[C@]2(C)/C(=N/OCCN3CCCC3)CC[C@@H]12     HOP-62 NSCLC   53.2 µM
 7    Oc1ccccc1-c1nc2c3ccccc3c3ccccc3c2[nH]1     HOP-62 NSCLC     15 µM
 8  Cc1nc(C(N)=S)sc1C(=O)C/C(=N/N)C(=O)Nc1cccc(Cl)c1C     HOP-62 NSCLC  > 100 µM
 9  COc1ccc(/C=C2\N=C(c3ccccc3)N(C3Nc4cc5c(cc4S3)NC(N3C(=O)/C(=C/c4ccc(OC)cc4)N=C3c3ccccc3)S5)C2=O)cc1 (stereo not given)     HOP-62 NSCLC  > 100 µM
10  CC(C)N(C)C(=O)C12C3C4C1C1C2C3C41C#N (stereo not given)     HOP-62 NSCLC  > 100 µM

###

Test system: CAKI-1 renal
test name: NCI tumour cell line growth inhibition, 48 h
Reported TGI by item:
property name: TGI

> print(dat)
                                   compound       val
1  O=c1[nH]c(=O)n(C2OC3COC2C3O)cc1F (stereo not given)  > 100 µM
2  CCOc1c(Cl)cc(CNC(C)C(O)c2ccccc2)cc1OC (stereo not given)   54.7 µM
3  COc1ccccc1Nc1nc(NNC(=O)Cc2ccccc2)nc(NNC(=O)c2ccncc2)n1   > 10 µM
4  Cc1ccc(C(=O)/C(C#N)=C/Nc2c(C)n(C)n(-c3ccccc3)c2=O)cc1  > 100 µM
5  CN(Cc1cnc2nc(N)nc(N)c2n1)c1ccc(C(=O)NC(CCC(=O)NC(P(=O)(O)O)P(=O)(O)O)C(=O)O)cc1 (stereo not given)   29.8 µM

###

System: EKVX NSCLC
test name: NCI tumour cell line growth inhibition, 48 h
Reported TGI by item:
property name: TGI

> print(dat)
                                   compound       val
1  CC1(C)Oc2ccc(NC(=O)CCC(N)C(=O)O)cc2O1 (stereo unspecified)  > 100 µM
2  CC(=O)N1CCN(C23OC4(N5CCN(C(C)=O)CC5)C5C6CC(C7C6C4C72)C53)CC1 (stereo unspecified)  > 100 µM
3  COc1cc(Br)c(C=Nc2cccc3ccc(OS(=O)(=O)c4cccc([N+](=O)[O-])c4)cc23)cc1OC  > 100 µM
4  Cc1nn(-c2ccccc2)c(-c2ccccc2[N+](=O)[O-])c1CC#N  > 100 µM
5        CC(C)Oc1cc(O)c2c(c1)OCC=C2CCC(=O)O   91.2 µM
6                     O=C1CCCN1CC#CCN1CCCC1  > 100 µM

Data provenance: PubChem BioAssay (NCI)
